Tested on: fibrin-induced microglia activation
TEST_DESCRIPTION: Image-based assay of fibrin-induced microglia activation (HTS and dose response)
Type: cell-based, rat
CONDITION: Rattus norvegicus, Microglia, 48 h, Table 1; dose response 0.001-20 μM, triplicates, primary rat microglia, 48 h; read-out: Fibrin IC50
pIC50: −log10 of the molar value. Counter-ions that a name gives are not always drawn.
Classify as follows. Reported pIC50 greater than or equal to 6: condition met. Reported pIC50 below: condition not met.

Could you please find out whether CN1CCN(CCCN2c3ccccc3Sc3ccc(C(F)(F)F)cc32)CC1 [Trifluoperazine dihydrochloride, reference compound] has pIC50 that meets 6 or exceeds it? condition not met

Now consider Cc1cccc(C)c1NC(=O)c1ccccc1C(=O)O [Ftaxilide, reference compound] . condition not met

Now consider CC(NCCc1ccc(O)cc1)C(O)c1ccc(O)cc1 (centres unmarked) [Ritodrine hydrochloride, reference compound] . condition met

Now consider OCc1ccccc1O[C@@H]1O[C@H](CO)[C@@H](O)[C@H](O)[C@H]1O [Salicin, reference compound] . condition not met

Now consider O=C1C=C2C=C[C@@H]3C[C@@]2(O1)[C@H]1CCCCN31 [Securinine, reference compound] . condition not met

Now consider Nc1ccc(S(=O)(=O)Nc2cnc3ccccc3n2)cc1 [Sulfaquinoxaline sodium, reference compound] . condition not met

Now consider CCOC(=O)[N-]c1cn(N2CCOCC2)n[o+]1 [Molsidomine, reference compound] . condition not met

###

System: primary rat microglia
TEST_DESCRIPTION: Cell toxicity (dead cells, size <150 μm2) in LPS assay
CONDITION: primary microglia HTS, LPS stimulation; decreased size (<150 μm^2) as marker of toxicity
PROPERTY_NAME: LPS % cell toxicity (%)
Numbers only, in %.

Example cases with answers are listed next.
COMPOUND	OBS_VALUE
CC(=O)OCC(=O)[C@@]1(O)CC[C@H]2[C@@H]3CCC4=CC(=O)C=C[C@]4(C)[C@@]3(Cl)[C@@H](Cl)C[C@@]21C [Dichlorisone acetate, reference compound]	1
C[C@H]1[C@H](OC(=O)CCC(=O)O)O[C@@H]2O[C@@]3(C)CC[C@H]4[C@H](C)CC[C@@H]1[C@@]24OO3 [Artesunate, reference compound]	0

Given the entry CCOC(=O)[N-]c1cn(N2CCOCC2)n[o+]1 [Molsidomine, reference compound] , report its measured LPS % cell toxicity. 5

###

System: primary rat microglia
TEST_DESCRIPTION: Cell toxicity (dead cells, size <150 μm2) in LPS assay
CONDITION: read-out: Cell Toxicity IC50 (uM) [LPS assay]; Table 3
Provide the recorded IC50 for the entries that follow.

Example cases with answers are listed next.
COMPOUND	TARGET_SYSTEM	PROPERTY_NAME	OBS_VALUE
CC(=O)[C@@]12O[C@](C)(c3ccccc3)O[C@@H]1C[C@H]1[C@@H]3CCC4=CC(=O)CC[C@]4(C)[C@H]3CC[C@@]12C [Algestone acetophenide, reference compound]	primary rat microglia	IC50	> 20 µM
COc1cc2c(cc1O)CC[C@@H]1[C@@H]2CC[C@]2(C)[C@@H](O)CC[C@@H]12 [2-methoxyestradiol, reference compound]	primary rat microglia	IC50	> 20 µM

Attention now shifts to the item below.
Given the entry O=C1[O][Pt]2([NH][C@@H]3CCCC[C@H]3[NH]2)[O]C1=O [Oxaliplatin, reference compound] , report its measured IC50. > 20 µM

Every entry's value here was drawn from patent US20210330611A1.
